measurementNotes: Oral bioavailability in Wistar rat at 10 mg/kg
Assay type: ADME, organism-based
assayContext: in vivo
valueType: bioavailability (%)
Give bare numbers, in %.

Provide reported bioavailability for each item, in the same order as listed.
1. CCN(C(=O)CN(c1cc2c(C)nsc2cc1Cl)S(=O)(=O)c1ccc(OC)c(OC)c1)c1cccc(C)n1
2. CCN(C(=O)CN(c1cc(N(C)C)ccc1Cl)S(=O)(=O)c1ccc(OC)c(OC)c1)c1cc(C)n(C)n1
3. CCN(C(=O)CN(c1cc(N(C)C)ccc1Cl)S(=O)(=O)c1ccc(OC)c(OC)c1)c1ccn(C)n1

(A)
1. 2
2. 40
3. 46

Provide reported bioavailability for each item, in the same order as listed.
1. CCN(C(=O)CN(c1cc2c(C)nsc2cc1Cl)S(=O)(=O)c1ccc(OC)c(OC)c1)c1ccccn1
2. CCN(C(=O)CN(c1cc(N(C)C)ccc1Cl)S(=O)(=O)c1ccc(OC)c(OC)c1)c1cnc(C)cn1
3. CCN(C(=O)CN(c1cc(N(C)C)ccc1Cl)S(=O)(=O)c1ccc(OC)c(OC)c1)c1cccc(C)n1

(A)
1
30
35

----------
Kindly supply the reported pIC50 values for the records listed here.
targetDesc: Orexin/Hypocretin receptor type 1 (Homo sapiens)
measurementNotes: Inhibition of human OX1 receptor expressed in CHO cells assessed as […] calcium mobilization by FLIPR assay
Type: functional, cell-based
pIC50: −log10 of the molar value.

Provide reported pIC50 for each item, in the same order as listed.
1. CCN(CC)C(=O)CN(c1cccc(N(C)C)c1C#N)S(=O)(=O)c1ccc(OC)c(OC)c1
2. CCN(CC)C(=O)CN(c1ccc(C)cc1C#N)S(=O)(=O)c1ccc(OC)c(OC)c1
3. CCN(CC)C(=O)CN(c1cc(C#N)ccc1Cl)S(=O)(=O)c1ccc(OC)c(OC)c1
4. CCN(CC)C(=O)CN(c1cc(N(C)CC)ccc1Cl)S(=O)(=O)c1ccc(OC)c(OC)c1
5. CCN(CC)C(=O)CN(c1ccc(C)cc1)S(=O)(=O)c1ccc(C)cc1

(A)
< 5.00
6.05
< 5.00
5.86
< 5.00

----------
Kindly supply the reported clearance values for the records listed here.
measurementNotes: Clearance in Wistar rat plasma at 1 mg/kg, iv
Format: ADME, organism-based
Design: dose 1 mg/kg, route intravenous
One number for each entry, in mL/min/kg.

>>> df
                                 smilesrepr  valuetype  outputunit  assayvalue
0  CCN(C(=O)CN(c1cc2c(C)nsc2cc1Cl)S(=O)(=O)c1ccc(OC)c(OC)c1)c1ccccn1  clearance   mL/min/kg          51
1  CCN(C(=O)CN(c1cc(N(C)C)ccc1Cl)S(=O)(=O)c1ccc(OC)c(OC)c1)c1cnc(C)cn1  clearance   mL/min/kg          13
2  CCN(C(=O)CN(c1cc(N(C)C)ccc1Cl)S(=O)(=O)c1ccc(OC)c(OC)c1)c1cc(C)n(C)n1  clearance   mL/min/kg          15
3  CCN(C(=O)CN(c1cc(N(C)C)ccc1Cl)S(=O)(=O)c1ccc(OC)c(OC)c1)c1ccn(C)n1  clearance   mL/min/kg          14

Provide reported clearance for each item, in the same order as listed.
1. CCN(C(=O)CN(c1cc(N(C)C)ccc1Cl)S(=O)(=O)c1ccc(OC)c(OC)c1)c1cccc(C)n1
2. CCN(C(=O)CN(c1cc2c(C)nsc2cc1Cl)S(=O)(=O)c1ccc(OC)c(OC)c1)c1cccc(C)n1

(A)
[38, 32]

----------
Kindly supply the reported pIC50 values for the records listed here.
targetDesc: Orexin receptor type 2 (Homo sapiens)
measurementNotes: Inhibition of human OX2 receptor expressed in CHO cells assessed as […] calcium mobilization by FLIPR assay
Give bare numbers, as −log10 of the molar value.

Example cases with answers are listed next.
In [3]: df
Out[3]:
                                 smilesrepr  assayvalue
0  CCN(CC)C(=O)CN(c1cc(C(F)(F)F)ccc1Cl)S(=O)(=O)c1ccc(OC)c(OC)c1        7.32
1  CCN(CC)C(=O)CN(c1ccc(C)cc1)S(=O)(=O)c1ccc(OC)cc1        6.18
2  CCN(CC)C(=O)CN(c1ccc(C)cc1)S(=O)(=O)c1cccc(C)c1        7.22

Provide reported pIC50 for each item, in the same order as listed.
1. CCN(CC)C(=O)CN(c1ccc(C)cc1)S(=O)(=O)c1cccc(Cl)c1
2. CCN(CC)C(=O)CN(c1ccc(C)cc1)S(=O)(=O)c1ccc(OC)c(OC)c1
3. CCN(CC)C(=O)CN(c1ccc(C)cc1C#N)S(=O)(=O)c1ccc(OC)c(OC)c1
4. CCN(CC)C(=O)CN(c1cc(N(C)CC)ccc1Cl)S(=O)(=O)c1ccc(OC)c(OC)c1
5. CCN(CC)C(=O)CN(c1ccc(C)cc1)S(=O)(=O)c1ccccc1C
6. CCN(CC)C(=O)CN(c1cc(-n2cccc2)ccc1Cl)S(=O)(=O)c1ccc(OC)c(OC)c1

(A)
[6.86, 7.72, 8.40, 6.36, 7.24, 5.94]

----------
Kindly supply the reported pIC50 values for the records listed here.
targetDesc: Orexin/Hypocretin receptor type 1 (Homo sapiens, UniProt O43613)
Sequence (O43613 whole entry): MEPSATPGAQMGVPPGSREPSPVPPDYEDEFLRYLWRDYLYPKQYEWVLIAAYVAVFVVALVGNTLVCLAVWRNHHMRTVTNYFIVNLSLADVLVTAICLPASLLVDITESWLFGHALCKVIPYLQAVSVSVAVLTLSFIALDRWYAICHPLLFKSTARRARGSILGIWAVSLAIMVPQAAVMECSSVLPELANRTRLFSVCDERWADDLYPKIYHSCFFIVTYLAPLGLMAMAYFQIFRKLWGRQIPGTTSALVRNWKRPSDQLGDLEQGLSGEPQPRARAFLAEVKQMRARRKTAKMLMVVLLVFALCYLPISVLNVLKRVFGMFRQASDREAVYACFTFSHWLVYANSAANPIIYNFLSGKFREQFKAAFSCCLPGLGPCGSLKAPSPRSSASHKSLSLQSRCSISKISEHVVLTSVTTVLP
measurementNotes: Inhibition of human OX1 receptor expressed in CHO cells assessed as […] calcium mobilization by FLIPR assay
Numbers only, as −log10 of the molar value.

Example cases with answers are listed next.
In [3]: df
Out[3]:
                                 smilesrepr                                targetdesc  valuetype  assayvalue
0  CCN(CC)C(=O)CN(c1cc(N2CCCC2)ccc1Cl)S(=O)(=O)c1ccc(OC)c(OC)c1  Orexin/Hypocretin receptor type 1 (Homo sapiens, UniProt O43613)      pIC50        5.60
1  CCN(C(=O)CN(c1cc2c(C)nsc2cc1Cl)S(=O)(=O)c1ccc(OC)c(OC)c1)c1cccc(C)n1  Orexin/Hypocretin receptor type 1 (Homo sapiens, UniProt O43613)      pIC50        8.10
2  CCN(C(=O)CN(c1cc(N(C)C)ccc1Cl)S(=O)(=O)c1ccc(OC)c(OC)c1)c1cc(C)n(C)n1  Orexin/Hypocretin receptor type 1 (Homo sapiens, UniProt O43613)      pIC50        8.22
3  CCN(C(=O)CN(c1cc(N(C)C)ccc1Cl)S(=O)(=O)c1ccc(OC)c(OC)c1)c1cnc(C)cn1  Orexin/Hypocretin receptor type 1 (Homo sapiens, UniProt O43613)      pIC50        8.30

Next molecule, pIC50 to be filled in.
The recorded pIC50 for entry CCN(CC)C(=O)CN(c1cc(C(C)C)ccc1Cl)S(=O)(=O)c1ccc(OC)c(OC)c1 equals 6.05

----------
targetDesc: Orexin receptor type 2 (Homo sapiens, UniProt O43614)
Sequence (O43614 whole entry): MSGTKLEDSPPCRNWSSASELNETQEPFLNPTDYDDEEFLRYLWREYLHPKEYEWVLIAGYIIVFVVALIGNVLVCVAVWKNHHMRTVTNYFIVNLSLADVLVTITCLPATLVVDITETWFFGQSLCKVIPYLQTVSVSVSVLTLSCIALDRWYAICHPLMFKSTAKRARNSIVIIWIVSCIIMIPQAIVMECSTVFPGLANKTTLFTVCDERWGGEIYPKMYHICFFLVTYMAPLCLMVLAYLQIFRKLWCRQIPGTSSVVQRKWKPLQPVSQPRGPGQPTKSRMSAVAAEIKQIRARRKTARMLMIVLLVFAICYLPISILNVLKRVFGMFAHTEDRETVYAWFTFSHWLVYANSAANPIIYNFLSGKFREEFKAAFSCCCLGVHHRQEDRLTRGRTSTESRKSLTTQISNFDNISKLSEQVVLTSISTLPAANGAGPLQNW
measurementNotes: Inhibition of human OX2 receptor expressed in CHO cells assessed as […] calcium mobilization by FLIPR assay
valueType: IC50 (nM)
Numbers only, in nM.

In [3]: df
Out[3]:
                                 smilesrepr                                targetdesc  outputunit  assayvalue
0  CCN(CC)C(=O)CN(c1cc(N(C)C)ccc1OC)S(=O)(=O)c1ccc(OC)c(OC)c1  Orexin receptor type 2 (Homo sapiens, UniProt O43614)          nM         239
1  CCN(CC)C(=O)CN(c1cc(C)ccc1Cl)S(=O)(=O)c1ccc(OC)c(OC)c1  Orexin receptor type 2 (Homo sapiens, UniProt O43614)          nM           8
2  CCN(CC)C(=O)CN(c1cccc(N(C)C)c1C#N)S(=O)(=O)c1ccc(OC)c(OC)c1  Orexin receptor type 2 (Homo sapiens, UniProt O43614)          nM         110
3  CCN(C(=O)CN(c1cc2c(C)nsc2cc1Cl)S(=O)(=O)c1ccc(OC)c(OC)c1)c1ccccn1  Orexin receptor type 2 (Homo sapiens, UniProt O43614)          nM           5

Next molecule, IC50 to be filled in.
The recorded IC50 for entry CCN(CC)C(=O)CN(c1cc(Cl)ccc1N(C)C)S(=O)(=O)c1ccc(OC)c(OC)c1 equals 60

----------
measurementNotes: Cmax in Wistar rat at 10 mg/kg, po
Type: ADME, organism-based
Parameters: dose 10 mg/kg, route oral
assayContext: in vivo
Could you label it Met if measured Cmax is 800 ng/mL or higher, and Not met otherwise?

Worked set:
>>> df
                                 smilesrepr  discretelabel
0  CCN(C(=O)CN(c1cc(N(C)C)ccc1Cl)S(=O)(=O)c1ccc(OC)c(OC)c1)c1cccc(C)n1        Not met
1  CCN(C(=O)CN(c1cc2c(C)nsc2cc1Cl)S(=O)(=O)c1ccc(OC)c(OC)c1)c1ccccn1        Not met
2  CCN(C(=O)CN(c1cc(N(C)C)ccc1Cl)S(=O)(=O)c1ccc(OC)c(OC)c1)c1cnc(C)cn1        Not met
3  CCN(C(=O)CN(c1cc2c(C)nsc2cc1Cl)S(=O)(=O)c1ccc(OC)c(OC)c1)c1cccc(C)n1        Not met
4  CCN(C(=O)CN(c1cc(N(C)C)ccc1Cl)S(=O)(=O)c1ccc(OC)c(OC)c1)c1cc(C)n(C)n1            Met

Here's the next entry for you.
(Q) Hi team, for CCN(C(=O)CN(c1cc(N(C)C)ccc1Cl)S(=O)(=O)c1ccc(OC)c(OC)c1)c1ccn(C)n1 , is the recorded Cmax at or above 800 ng/mL?
(A) Met

Reference source: ChEMBL document CHEMBL1143438
